Ref: the supplement of paper PMC6757056

B1: library; a variant is named by its letters at N, in order (parent)
chain: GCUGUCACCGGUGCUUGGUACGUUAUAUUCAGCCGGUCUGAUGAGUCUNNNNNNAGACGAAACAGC

variants of: B1; experiment: normalized RNA/DNA level with ligand (relative to sTRSVctl = 100) (log10 (% of sTRSVctl)); HEK293T overexpressing SLC46A1; ligand concentration (+) RNA-Seq: 6 mM; higher = less ribozyme self-cleavage, higher mRNA level; conditions: with (6R,S)-folinic acid; ligand present: yes
Listed next: entries and their corresponding normalized RNA/DNA level with ligand (log10).
ENDPOINT NAME: normalized RNA/DNA level with ligand (log10)

>>> observed_measurement("GCUGUCACCGGUGCUUGGUACGUUAUAUUCAGCCGGUCUGAUGAGUCUCGGUGGAGACGAAACAGC [CGGUGG]")
1.99
>>> observed_measurement("GCUGUCACCGGUGCUUGGUACGUUAUAUUCAGCCGGUCUGAUGAGUCUCGCGUCAGACGAAACAGC [CGCGUC]")
2.06
>>> observed_measurement("GCUGUCACCGGUGCUUGGUACGUUAUAUUCAGCCGGUCUGAUGAGUCUCUGUAAAGACGAAACAGC [CUGUAA]")
2.02
>>> observed_measurement("GCUGUCACCGGUGCUUGGUACGUUAUAUUCAGCCGGUCUGAUGAGUCUAUUUACAGACGAAACAGC [AUUUAC]")
2.03
>>> observed_measurement("GCUGUCACCGGUGCUUGGUACGUUAUAUUCAGCCGGUCUGAUGAGUCUUGAUCUAGACGAAACAGC [UGAUCU]")
2.04
>>> observed_measurement("GCUGUCACCGGUGCUUGGUACGUUAUAUUCAGCCGGUCUGAUGAGUCUCGUCGGAGACGAAACAGC [CGUCGG]")
2.08
>>> observed_measurement("GCUGUCACCGGUGCUUGGUACGUUAUAUUCAGCCGGUCUGAUGAGUCUUCGUUUAGACGAAACAGC [UCGUUU]")
2.03
>>> observed_measurement("GCUGUCACCGGUGCUUGGUACGUUAUAUUCAGCCGGUCUGAUGAGUCUAACACCAGACGAAACAGC [AACACC]")
2.05
>>> observed_measurement("GCUGUCACCGGUGCUUGGUACGUUAUAUUCAGCCGGUCUGAUGAGUCUCUGAGCAGACGAAACAGC [CUGAGC]")
2.01
>>> observed_measurement("GCUGUCACCGGUGCUUGGUACGUUAUAUUCAGCCGGUCUGAUGAGUCUAGUUACAGACGAAACAGC [AGUUAC]")
1.99
>>> observed_measurement("GCUGUCACCGGUGCUUGGUACGUUAUAUUCAGCCGGUCUGAUGAGUCUGACGCAAGACGAAACAGC [GACGCA]")
2.01
>>> observed_measurement("GCUGUCACCGGUGCUUGGUACGUUAUAUUCAGCCGGUCUGAUGAGUCUCGCGGGAGACGAAACAGC [CGCGGG]")
2.04
>>> observed_measurement("GCUGUCACCGGUGCUUGGUACGUUAUAUUCAGCCGGUCUGAUGAGUCUUCGUGGAGACGAAACAGC [UCGUGG]")
2.02
>>> observed_measurement("GCUGUCACCGGUGCUUGGUACGUUAUAUUCAGCCGGUCUGAUGAGUCUCAGAGGAGACGAAACAGC [CAGAGG]")
2
>>> observed_measurement("GCUGUCACCGGUGCUUGGUACGUUAUAUUCAGCCGGUCUGAUGAGUCUACCAUGAGACGAAACAGC [ACCAUG]")
2.02
>>> observed_measurement("GCUGUCACCGGUGCUUGGUACGUUAUAUUCAGCCGGUCUGAUGAGUCUUCUACAAGACGAAACAGC [UCUACA]")
2.05
>>> observed_measurement("GCUGUCACCGGUGCUUGGUACGUUAUAUUCAGCCGGUCUGAUGAGUCUUUAGGCAGACGAAACAGC [UUAGGC]")
2
>>> observed_measurement("GCUGUCACCGGUGCUUGGUACGUUAUAUUCAGCCGGUCUGAUGAGUCUCGUUUCAGACGAAACAGC [CGUUUC]")
2.06
>>> observed_measurement("GCUGUCACCGGUGCUUGGUACGUUAUAUUCAGCCGGUCUGAUGAGUCUUUGUGCAGACGAAACAGC [UUGUGC]")
2.05
>>> observed_measurement("GCUGUCACCGGUGCUUGGUACGUUAUAUUCAGCCGGUCUGAUGAGUCUGAUCGCAGACGAAACAGC [GAUCGC]")
2.03
>>> observed_measurement("GCUGUCACCGGUGCUUGGUACGUUAUAUUCAGCCGGUCUGAUGAGUCUAGUCGCAGACGAAACAGC [AGUCGC]")
1.98
>>> observed_measurement("GCUGUCACCGGUGCUUGGUACGUUAUAUUCAGCCGGUCUGAUGAGUCUCGUACCAGACGAAACAGC [CGUACC]")
2.02
